Source of measurements: patent US10703746B2

# IC50 per entry
molecular target: IDH1 R132C (Homo sapiens, UniProt O75874, R132C); assay: IDH1 R132C enzymatic assay (NADPH depletion coupled to diaphorase/resazurin); format: biochemical; conditions: IDH1 R132C enzymatic inhibition, IC50 class
Sequence (O75874 whole entry R132C): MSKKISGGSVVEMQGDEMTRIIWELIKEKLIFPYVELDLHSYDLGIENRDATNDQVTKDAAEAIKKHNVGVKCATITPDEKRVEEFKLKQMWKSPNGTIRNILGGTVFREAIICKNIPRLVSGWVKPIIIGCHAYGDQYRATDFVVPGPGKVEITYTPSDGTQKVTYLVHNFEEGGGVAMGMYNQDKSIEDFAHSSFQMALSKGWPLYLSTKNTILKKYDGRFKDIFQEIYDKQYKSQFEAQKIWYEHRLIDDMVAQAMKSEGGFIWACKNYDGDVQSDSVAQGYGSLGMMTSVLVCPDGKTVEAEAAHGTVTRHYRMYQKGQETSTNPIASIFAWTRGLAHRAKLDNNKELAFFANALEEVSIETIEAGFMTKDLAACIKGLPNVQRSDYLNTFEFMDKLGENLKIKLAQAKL
measurement name: IC50

CCc1cccc(CC)c1-n1c(CC(C)C)c(C(=O)NC2CCCCC2O)cc(-c2nc(-c3ccc(Cl)cc3)cs2)c1=O (stereo not shown) [Compound 159]	1000 to 5000 nM
CCc1cccc(CC)c1-n1c(C=C(C)C)c(C(=O)N2CCNCC2(C)C)cc(-c2nc(-c3ccc(Cl)cc3)cs2)c1=O [Compound 366]	< 300 nM
CCc1cccc(CC)c1-n1c(C)c(C(=O)N2CCC(N)C2)cc(-c2nc(-c3ccc(Cl)cc3)cs2)c1=O (stereo not shown) [Compound 245]	1000 to 5000 nM
CCc1cccc(CC)c1-n1c(C)c(C(=O)N2CCCC(O)C2)cc(-c2nc(-c3ccc(Cl)cc3)cs2)c1=O (stereo not shown) [Compound 250]	1000 to 5000 nM
COC(=O)c1ccccc1-n1c2c(cc(-c3nc(-c4ccc(Cl)cc4)cs3)c1=O)C(=O)CC(C)(C)C2 [Compound 254]	300 to 1000 nM
CCc1cccc(CC)c1-n1c(CC(C)C)c(C(=O)N2CCNCC2)cc(-n2cc(-c3ccc(Cl)cc3)cn2)c1=O [Compound 658]	5000 to 20000 nM
CCOc1cccc(Cl)c1-n1c(C=C(C)C)c(C(=O)N2CCNCC2)cc(-c2nc(-c3ccc(Cl)cc3)cs2)c1=O [Compound 374]	< 300 nM
